test: activity coefficient (dimensionless); of the first substance listed, at infinite dilution; xn = mol fraction of the nth substance listed; conditions: 323.15 K; 101.33 kPa; Liquid; Chromatography; x1 = 0
Label rule, in plain words: activity coefficient of 1 and up is fulfilled, under 1 is not fulfilled.

Cc1ccc(C)cc1 [1,4-dimethylbenzene] + CCCCCCCCn1cc[n+](C)c1C.O=S(=O)([N-]S(=O)(=O)C(F)(F)F)C(F)(F)F    fulfilled
CC(C)CO [2-methyl-1-propanol] + CCCCCCCCn1cc[n+](C)c1C.O=S(=O)([N-]S(=O)(=O)C(F)(F)F)C(F)(F)F    fulfilled
CCCCCCCCCC [decane] + CCCCCCCCn1cc[n+](C)c1C.O=S(=O)([N-]S(=O)(=O)C(F)(F)F)C(F)(F)F    fulfilled
ClCCl [dichloromethane] + CCCCCCCCn1cc[n+](C)c1C.O=S(=O)([N-]S(=O)(=O)C(F)(F)F)C(F)(F)F    not fulfilled

Does the reported activity coefficient for CCCCCCCCC [nonane] + CCCCCCCCn1cc[n+](C)c1C.O=S(=O)([N-]S(=O)(=O)C(F)(F)F)C(F)(F)F fall at or above the 1 mark?
fulfilled

Does the reported activity coefficient for Cc1cccc(C)c1 [1,3-dimethylbenzene] + CCCCCCCCn1cc[n+](C)c1C.O=S(=O)([N-]S(=O)(=O)C(F)(F)F)C(F)(F)F fall at or above the 1 mark?
fulfilled

Does the reported activity coefficient for ClC(Cl)Cl [trichloromethane] + CCCCCCCCn1cc[n+](C)c1C.O=S(=O)([N-]S(=O)(=O)C(F)(F)F)C(F)(F)F fall at or above the 1 mark?
not fulfilled

---

test: activity coefficient (dimensionless); of the first substance listed, at infinite dilution; xn = mol fraction of the nth substance listed; settings: 353.15 K; 101.33 kPa; Liquid; Chromatography; x1 = 0
So basically, if activity coefficient comes in under 1 it's Satisfied, and if it's 1 or more it's Not satisfied.

Solved cases (8 shown):
ClC(Cl)(Cl)Cl [tetrachloromethane] + CCCCCCCCn1cc[n+](C)c1C.O=S(=O)([N-]S(=O)(=O)C(F)(F)F)C(F)(F)F    Not satisfied
CC(C)CO [2-methyl-1-propanol] + CCCCCCCCn1cc[n+](C)c1C.O=S(=O)([N-]S(=O)(=O)C(F)(F)F)C(F)(F)F    Not satisfied
CCCCCO [pentan-1-ol] + CCCCCCCCn1cc[n+](C)c1C.O=S(=O)([N-]S(=O)(=O)C(F)(F)F)C(F)(F)F    Not satisfied
Cc1ccc(C)cc1 [1,4-dimethylbenzene] + CCCCCCCCn1cc[n+](C)c1C.O=S(=O)([N-]S(=O)(=O)C(F)(F)F)C(F)(F)F    Satisfied
CCCCCCC [heptane] + CCCCCCCCn1cc[n+](C)c1C.O=S(=O)([N-]S(=O)(=O)C(F)(F)F)C(F)(F)F    Not satisfied
CCC(C)O (configuration not stated) [butan-2-ol] + CCCCCCCCn1cc[n+](C)c1C.O=S(=O)([N-]S(=O)(=O)C(F)(F)F)C(F)(F)F    Not satisfied
C=CCCCC [hex-1-ene] + CCCCCCCCn1cc[n+](C)c1C.O=S(=O)([N-]S(=O)(=O)C(F)(F)F)C(F)(F)F    Not satisfied
C1COCCO1 [1,4-dioxane] + CCCCCCCCn1cc[n+](C)c1C.O=S(=O)([N-]S(=O)(=O)C(F)(F)F)C(F)(F)F    Satisfied

Continue with the molecule presented below.
Lab note: confirm whether the reported activity coefficient for this molecule is below 1, equality not counting. molecule: CO [methanol] + CCCCCCCCn1cc[n+](C)c1C.O=S(=O)([N-]S(=O)(=O)C(F)(F)F)C(F)(F)F
Satisfied

---

Entries and their activity coefficient values follow.
experiment: activity coefficient (dimensionless); of the first substance listed, at infinite dilution; xn = mol fraction of the nth substance listed; conditions: 333.15 K; 101.33 kPa; Liquid; Chromatography; x1 = 0
The answer should be a number; do not append a unit.

C1CCCCC1 [cyclohexane] + CCCCCCCCn1cc[n+](C)c1C.O=S(=O)([N-]S(=O)(=O)C(F)(F)F)C(F)(F)F    3.75
CCCCCCC [heptane] + CCCCCCCCn1cc[n+](C)c1C.O=S(=O)([N-]S(=O)(=O)C(F)(F)F)C(F)(F)F    6.89
CCC(C)O (configuration not stated) [butan-2-ol] + CCCCCCCCn1cc[n+](C)c1C.O=S(=O)([N-]S(=O)(=O)C(F)(F)F)C(F)(F)F    1.5
ClCCl [dichloromethane] + CCCCCCCCn1cc[n+](C)c1C.O=S(=O)([N-]S(=O)(=O)C(F)(F)F)C(F)(F)F    0.68
CC(C)CO [2-methyl-1-propanol] + CCCCCCCCn1cc[n+](C)c1C.O=S(=O)([N-]S(=O)(=O)C(F)(F)F)C(F)(F)F    1.6

Give recorded activity coefficient. C1CCOC1 [tetrahydrofuran] + CCCCCCCCn1cc[n+](C)c1C.O=S(=O)([N-]S(=O)(=O)C(F)(F)F)C(F)(F)F
0.44

Give recorded activity coefficient. C1=CCCCC1 [cyclohexene] + CCCCCCCCn1cc[n+](C)c1C.O=S(=O)([N-]S(=O)(=O)C(F)(F)F)C(F)(F)F
2.5

---

test: activity coefficient (dimensionless); of the first substance listed, at infinite dilution; xn = mol fraction of the nth substance listed; conditions: 353.15 K; 101.33 kPa; Liquid; Chromatography; x1 = 0
ENDPOINT: activity coefficient
The answer should be a number; do not append a unit.

Give recorded activity coefficient. CC(C)O [propan-2-ol] + CCCCCCCCn1cc[n+](C)c1C.O=S(=O)([N-]S(=O)(=O)C(F)(F)F)C(F)(F)F
1.17

Give recorded activity coefficient. Cc1cccc(C)c1 [1,3-dimethylbenzene] + CCCCCCCCn1cc[n+](C)c1C.O=S(=O)([N-]S(=O)(=O)C(F)(F)F)C(F)(F)F
1.01

Give recorded activity coefficient. CC(C)=O [acetone] + CCCCCCCCn1cc[n+](C)c1C.O=S(=O)([N-]S(=O)(=O)C(F)(F)F)C(F)(F)F
0.31

---

test: activity coefficient (dimensionless); of the first substance listed, at infinite dilution; xn = mol fraction of the nth substance listed; conditions: 323.15 K; 101.33 kPa; Liquid; Chromatography; x1 = 0
ENDPOINT: activity coefficient

ClC(Cl)(Cl)Cl [tetrachloromethane] + CCCCCCCCn1cc[n+](C)c1C.O=S(=O)([N-]S(=O)(=O)C(F)(F)F)C(F)(F)F    1.67

Give recorded activity coefficient. CC1CCCCC1 [methylcyclohexane] + CCCCCCCCn1cc[n+](C)c1C.O=S(=O)([N-]S(=O)(=O)C(F)(F)F)C(F)(F)F
4.88

---

assay: activity coefficient (dimensionless); of the first substance listed, at infinite dilution; xn = mol fraction of the nth substance listed; settings: 333.15 K; 101.33 kPa; Liquid; Chromatography; x1 = 0
ENDPOINT: activity coefficient
The answer should be a number; do not append a unit.

Cc1ccccc1 [toluene] + CCCCCCCCn1cc[n+](C)c1C.O=S(=O)([N-]S(=O)(=O)C(F)(F)F)C(F)(F)F    0.87

Give recorded activity coefficient. CO [methanol] + CCCCCCCCn1cc[n+](C)c1C.O=S(=O)([N-]S(=O)(=O)C(F)(F)F)C(F)(F)F
1.14

Give recorded activity coefficient. CC1CCCCC1 [methylcyclohexane] + CCCCCCCCn1cc[n+](C)c1C.O=S(=O)([N-]S(=O)(=O)C(F)(F)F)C(F)(F)F
4.25

Give recorded activity coefficient. CCO [ethanol] + CCCCCCCCn1cc[n+](C)c1C.O=S(=O)([N-]S(=O)(=O)C(F)(F)F)C(F)(F)F
1.31

---

assay: activity coefficient (dimensionless); of the first substance listed, at infinite dilution; xn = mol fraction of the nth substance listed; conditions: 313.15 K; 101.33 kPa; Liquid; Chromatography; x1 = 0
ENDPOINT: activity coefficient
The answer should be a number; do not append a unit.

Sample records with activity coefficient:
CCc1ccccc1 [ethylbenzene] + CCCCCCCCn1cc[n+](C)c1C.O=S(=O)([N-]S(=O)(=O)C(F)(F)F)C(F)(F)F    1.37
CCCCCO [pentan-1-ol] + CCCCCCCCn1cc[n+](C)c1C.O=S(=O)([N-]S(=O)(=O)C(F)(F)F)C(F)(F)F    2.61
CCCCCCCCCC [decane] + CCCCCCCCn1cc[n+](C)c1C.O=S(=O)([N-]S(=O)(=O)C(F)(F)F)C(F)(F)F    20.8
CCCCCCCCC [nonane] + CCCCCCCCn1cc[n+](C)c1C.O=S(=O)([N-]S(=O)(=O)C(F)(F)F)C(F)(F)F    14.4
C1CCCCC1 [cyclohexane] + CCCCCCCCn1cc[n+](C)c1C.O=S(=O)([N-]S(=O)(=O)C(F)(F)F)C(F)(F)F    4.76
CO [methanol] + CCCCCCCCn1cc[n+](C)c1C.O=S(=O)([N-]S(=O)(=O)C(F)(F)F)C(F)(F)F    1.37
CCC(C)O (centres undefined) [butan-2-ol] + CCCCCCCCn1cc[n+](C)c1C.O=S(=O)([N-]S(=O)(=O)C(F)(F)F)C(F)(F)F    2.03
C1CCOC1 [tetrahydrofuran] + CCCCCCCCn1cc[n+](C)c1C.O=S(=O)([N-]S(=O)(=O)C(F)(F)F)C(F)(F)F    0.54

Give recorded activity coefficient. Cc1ccc(C)cc1 [1,4-dimethylbenzene] + CCCCCCCCn1cc[n+](C)c1C.O=S(=O)([N-]S(=O)(=O)C(F)(F)F)C(F)(F)F
1.17
